- Test system: CEM cells
- test-protocol: Toxicity toward CEM cells
measured-parameter: CEM cell, concentration reducing the number of viable uninfected cells by 50%

Prompt: Find the recorded CEM cell, concentration reducing the number of viable uninfected cells by 50% belonging to Nc1nc2c(ncn2CCOCP(=O)(O)O)c(=O)[nH]1 [PMEG 27, 9-[2-(phosphonomethoxy)ethyl]guanine, reference compound] and report it.
Response: 12 µg/mL

Prompt: # repeat for Nc1ncnc2ncn(CCOCP(=O)(O)O)c12 [Compound 20, 7-[2-(Phosphonomethoxy)ethyl]adenine]
Response: >300 µg/mL

Prompt: Same question for COC1=C(OC)/C(=C/COP(=O)(O)OC[C@H]2O[C@@H](n3cnc4c(N)ncnc43)[C@H](O)[C@@H]2OP(=O)(O)COCCn2cnc3ncnc(N)c32)OC1=O [Compound 25] please.
Response: >300 µg/mL

Prompt: Same for COC1=C(OC)/C(=C/COP(=O)(O)COCCn2cnc3c(N)ncnc32)OC1=O [Compound 28]
Response: 280 µg/mL

Prompt: And then Nc1ncnc2c1ncn2CCOCP(=O)(O)O [PMEA 4, 9-[2-(phosphonomethoxy)ethyl]adenine, reference compound] , what is it?
Response: 285 µg/mL
